For each of the molecules below, state its IC50.
Study Target: HRV3C (Human rhinovirus 14, UniProt P03303)
Construct: 3CLpro and HRV3C was added using a Multidrop Combi
Sequence (P03303 1538-1719): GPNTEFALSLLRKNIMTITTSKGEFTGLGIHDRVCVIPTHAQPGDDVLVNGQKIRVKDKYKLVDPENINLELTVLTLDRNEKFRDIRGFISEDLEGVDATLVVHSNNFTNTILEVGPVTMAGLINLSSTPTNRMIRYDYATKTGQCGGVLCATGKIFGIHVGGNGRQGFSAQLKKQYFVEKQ
Test: biochemical
Design: species or system HRV
Applied Conditions: HRV3C, 30 mins preincubation, SAMDI-MS; read-out: HRV IC50 (bound)

Dear colleague, I am looking for the recorded IC50 of the following molecule: CC(C)(C)[C@H](NC(=O)C(F)(F)Cl)C(=O)N1C[C@@H]2[C@H]3C[C@@H]([C@@H]2[C@H]1C(=O)N[C@H](C#N)C[C@@H]1CCNC1=O)[C@H](F)C3 [Compound 134]
> 0.5 µM

Now this one: CC(C)(C)[C@H](NC(=O)C(F)(F)F)C(=O)N1C[C@@H]2[C@@H]3CC[C@@H](C3)[C@@H]2[C@H]1C(=O)N[C@H](C#N)CC1Cc2ccccc2NC1=O (stereo partly shown) [Example 31]
> 10 µM

Now this one: CC(C)(C)[C@H](NC(=O)C(F)(F)F)C(=O)N1C[C@@H]2[C@H]3C[C@@H]([C@@H]2[C@H]1C(=O)N[C@H](C#N)C[C@@H]1CCNC1=O)[C@H](F)C3 [Example 86]
> 0.5 µM

Now this one: CC(C)(C)[C@H](NC(=O)C(F)(F)C(F)(F)F)C(=O)N1C[C@H]2[C@@H]([C@H]1C(=O)N[C@H](C#N)C[C@@H]1CCNC1=O)[C@H]1C=C[C@@H]2C1(F)F [Compound 129]
> 0.5 µM

Now this one: CC(C)(C)[C@H](NC(=O)C(F)(F)F)C(=O)N1C[C@H]2[C@@H]([C@H]1C(=O)N[C@H](C#N)CC1Cn3nccc3NC1=O)[C@H]1C=C[C@@H]2C1 (stereo partly shown) [Example 9]
> 10 µM

Now this one: CC(C)(C)[C@H](NC(=O)C(F)(F)Cl)C(=O)N1C[C@H]2[C@@H]([C@H]1C(=O)N[C@H](C#N)C[C@@H]1CCNC1=O)[C@H]1C=C[C@@H]2C1 [Example 39]
> 10 µM

Now this one: C#CC(C)(C)[C@H](NC(=O)C(F)(F)F)C(=O)N1C[C@H]2[C@@H]([C@H]1C(=O)N[C@H](C#N)C[C@@H]1CCNC1=O)[C@H]1C=C[C@@H]2C1 [Example 7]
> 10 µM

Now this one: CC(C)(C)[C@H](NC(=O)C(F)(F)F)C(=O)N1C[C@H]2[C@@H]([C@H]1C(=O)N[C@H](C#N)CC1CC3(COC3)NC1=O)[C@H]1C=C[C@@H]2C1 (stereo partly shown) [Compound 106]
> 0.5 µM

Now this one: N#C[C@H](C[C@@H]1CCNC1=O)NC(=O)[C@@H]1[C@@H]2[C@H](CN1C(=O)[C@@H]1C[C@]13CCOc1ccccc13)[C@@H]1C=C[C@H]2C1 (relative stereo) [Compound 55]
> 10 µM

Now this one: CC(C)(C)[C@H](NC(=O)C(F)(F)F)C(=O)N1C[C@@H]2[C@H]3C[C@H]([C@@H]4C[C@@H]43)[C@@H]2[C@H]1C(=O)N[C@H](C#N)C[C@@H]1CCNC1=O [Example 2]
> 10 µM
